assayOverview: in vivo
conditionSummary: Lister Hooded, rat, in vivo, iv, 1 mg/kg
assayEndpoint: clearance at 1 h (mL/min/kg)
# unit: mL/min/kg | format: bare number

Lookup result for Cl.Nc1c2c(nc3ccccc13)CCCC2 [TACRINE HYDROCHLORIDE] ; measured clearance at 1 h: 93

====

assayOverview: in vivo
conditionSummary: Lister Hooded, rat, po, 3 mg/kg
assayEndpoint: Tmax (min)
# unit: min | format: bare number

Examples with their reported Tmax follow.
Br.COc1ccc2c3c1O[C@H]1C[C@@H](O)C=C[C@@]31CCN(C)C2 [GALANTAMINE HYDROBROMIDE] ... 30
Cl.Nc1c2c(nc3ccccc13)CCCC2 [TACRINE HYDROCHLORIDE] ... 30

Let us move to another entry and its Tmax.
Lookup result for COc1cc2c(cc1OC)C(=O)C(CC1CCN(Cc3ccccc3)CC1)C2.Cl (stereo not drawn) [DONEPEZIL HYDROCHLORIDE] ; measured Tmax: 60

====

Reported values of Cmax at 1 h for individual entries
assayOverview: in vivo
conditionSummary: Lister Hooded, rat, iv, 1 mg/kg
# unit: nM | format: bare number

Examples with their reported Cmax at 1 h follow.
Cl.Nc1c2c(nc3ccccc13)CCCC2 [TACRINE HYDROCHLORIDE] ... 700
Br.COc1ccc2c3c1O[C@H]1C[C@@H](O)C=C[C@@]31CCN(C)C2 [GALANTAMINE HYDROBROMIDE] ... 590

Lookup result for COc1cc2c(cc1OC)C(=O)C(CC1CCN(Cc3ccccc3)CC1)C2.Cl (stereo not drawn) [DONEPEZIL HYDROCHLORIDE] ; measured Cmax at 1 h: 320

====

assayOverview: in vivo
conditionSummary: Lister Hooded, rat, in vivo, iv, 1 mg/kg
assayEndpoint: clearance at 1 h (mL/min/kg)
# unit: mL/min/kg | format: bare number

Lookup result for Cl.Nc1c2c(nc3ccccc13)CCCC2 [TACRINE HYDROCHLORIDE] ; measured clearance at 1 h: 77

====

Reported values of Vd at 1 h for individual entries
assayOverview: Volume of distribution in 7 months-old Lister Hooded rat at 1 mg/kg, iv infusion for 1 hr
conditionSummary: in vivo
# unit: L/kg | format: bare number

Cl.Nc1c2c(nc3ccccc13)CCCC2 [TACRINE HYDROCHLORIDE] ... 5.1
Br.COc1ccc2c3c1O[C@H]1C[C@@H](O)C=C[C@@]31CCN(C)C2 [GALANTAMINE HYDROBROMIDE] ... 5

Let us move to another entry and its Vd at 1 h.
Lookup result for COc1cc2c(cc1OC)C(=O)C(CC1CCN(Cc3ccccc3)CC1)C2.Cl (stereo not drawn) [DONEPEZIL HYDROCHLORIDE] ; measured Vd at 1 h: 9.2

====

Reported values of Kp at 1 h for individual entries
assayOverview: Ratio of brain to blood in 7 months-old Lister Hooded rat blood at 3 mg/kg, po after 1 hr treatment
Just the number, please.

Br.COc1ccc2c3c1O[C@H]1C[C@@H](O)C=C[C@@]31CCN(C)C2 [GALANTAMINE HYDROBROMIDE] ... 1.7
COc1cc2c(cc1OC)C(=O)C(CC1CCN(Cc3ccccc3)CC1)C2.Cl (stereo not drawn) [DONEPEZIL HYDROCHLORIDE] ... 4.4

Let us move to another entry and its Kp at 1 h.
Lookup result for Cl.Nc1c2c(nc3ccccc13)CCCC2 [TACRINE HYDROCHLORIDE] ; measured Kp at 1 h: 11

====

Reported values of Cmax for individual entries
assayOverview: in vivo
conditionSummary: Lister Hooded, rat, po, 3 mg/kg

Examples with their reported Cmax follow.
Br.COc1ccc2c3c1O[C@H]1C[C@@H](O)C=C[C@@]31CCN(C)C2 [GALANTAMINE HYDROBROMIDE] ... 890 nM
COc1cc2c(cc1OC)C(=O)C(CC1CCN(Cc3ccccc3)CC1)C2.Cl (stereo not drawn) [DONEPEZIL HYDROCHLORIDE] ... 180 nM

Let us move to another entry and its Cmax.
Lookup result for Cl.Nc1c2c(nc3ccccc13)CCCC2 [TACRINE HYDROCHLORIDE] ; measured Cmax: 360 nM

====

assayOverview: in vivo
conditionSummary: Lister Hooded, rat, blood, iv, 1 mg/kg
Reported values of clearance at 1 h for individual entries
# unit: mL/min/kg | format: bare number

Br.COc1ccc2c3c1O[C@H]1C[C@@H](O)C=C[C@@]31CCN(C)C2 [GALANTAMINE HYDROBROMIDE] ... 41

Let us move to another entry and its clearance at 1 h.
Lookup result for COc1cc2c(cc1OC)C(=O)C(CC1CCN(Cc3ccccc3)CC1)C2.Cl (configuration not stated) [DONEPEZIL HYDROCHLORIDE] ; measured clearance at 1 h: 52

====

assayOverview: Half life in 30 months-old Lister Hooded rat at 1 mg/kg, iv infusion for 1 hr
conditionSummary: in vivo
Reported values of half-life at 1 h for individual entries
# unit: h | format: bare number

COc1cc2c(cc1OC)C(=O)C(CC1CCN(Cc3ccccc3)CC1)C2.Cl (stereo not drawn) [DONEPEZIL HYDROCHLORIDE] ... 3.6
Cl.Nc1c2c(nc3ccccc13)CCCC2 [TACRINE HYDROCHLORIDE] ... 1.1

Let us move to another entry and its half-life at 1 h.
Lookup result for Br.COc1ccc2c3c1O[C@H]1C[C@@H](O)C=C[C@@]31CCN(C)C2 [GALANTAMINE HYDROBROMIDE] ; measured half-life at 1 h: 1.2

====

assayOverview: Oral bioavailability in human at 2 mg single dose
conditionSummary: in vivo
assayEndpoint: bioavailability (%)
# unit: % | format: bare number

Cl.Nc1c2c(nc3ccccc13)CCCC2 [TACRINE HYDROCHLORIDE] ... 17

Lookup result for Br.COc1ccc2c3c1O[C@H]1C[C@@H](O)C=C[C@@]31CCN(C)C2 [GALANTAMINE HYDROBROMIDE] ; measured bioavailability: 85

Lookup result for COc1cc2c(cc1OC)C(=O)C(CC1CCN(Cc3ccccc3)CC1)C2.Cl (stereo not drawn) [DONEPEZIL HYDROCHLORIDE] ; measured bioavailability: 100

====

assayOverview: in vivo
conditionSummary: Lister Hooded, rat, po, 3 mg/kg
assayEndpoint: bioavailability

Examples with their reported bioavailability follow.
Cl.Nc1c2c(nc3ccccc13)CCCC2 [TACRINE HYDROCHLORIDE] ... 27%
Br.COc1ccc2c3c1O[C@H]1C[C@@H](O)C=C[C@@]31CCN(C)C2 [GALANTAMINE HYDROBROMIDE] ... 83%

Let us move to another entry and its bioavailability.
Lookup result for COc1cc2c(cc1OC)C(=O)C(CC1CCN(Cc3ccccc3)CC1)C2.Cl (stereo not drawn) [DONEPEZIL HYDROCHLORIDE] ; measured bioavailability: 36%

====

assayOverview: Half life in 7 months-old Lister Hooded rat at 1 mg/kg, iv infusion for 1 hr
conditionSummary: in vivo
Reported values of half-life at 1 h for individual entries
# unit: h | format: bare number

COc1cc2c(cc1OC)C(=O)C(CC1CCN(Cc3ccccc3)CC1)C2.Cl (stereo not drawn) [DONEPEZIL HYDROCHLORIDE] ... 2.5
Cl.Nc1c2c(nc3ccccc13)CCCC2 [TACRINE HYDROCHLORIDE] ... 0.9

Lookup result for Br.COc1ccc2c3c1O[C@H]1C[C@@H](O)C=C[C@@]31CCN(C)C2 [GALANTAMINE HYDROBROMIDE] ; measured half-life at 1 h: 1.9

====

Reported values of Cmax for individual entries
assayOverview: in vivo
conditionSummary: Lister Hooded, rat, po, 3 mg/kg
# unit: nM | format: bare number

Lookup result for COc1cc2c(cc1OC)C(=O)C(CC1CCN(Cc3ccccc3)CC1)C2.Cl (stereo not drawn) [DONEPEZIL HYDROCHLORIDE] ; measured Cmax: 200

Lookup result for Br.COc1ccc2c3c1O[C@H]1C[C@@H](O)C=C[C@@]31CCN(C)C2 [GALANTAMINE HYDROBROMIDE] ; measured Cmax: 1330

Lookup result for Cl.Nc1c2c(nc3ccccc13)CCCC2 [TACRINE HYDROCHLORIDE] ; measured Cmax: 310

====

assayOverview: in vivo
conditionSummary: Lister Hooded, rat, brain, po, 3 mg/kg
Description: Ratio of brain to blood in 30 months-old Lister Hooded rat blood at 3 mg/kg, po after 1 hr treatment
Reported values of Kp at 1 h for individual entries
Just the number, please.

Cl.Nc1c2c(nc3ccccc13)CCCC2 [TACRINE HYDROCHLORIDE] ... 9.5
Br.COc1ccc2c3c1O[C@H]1C[C@@H](O)C=C[C@@]31CCN(C)C2 [GALANTAMINE HYDROBROMIDE] ... 2

Let us move to another entry and its Kp at 1 h.
Lookup result for COc1cc2c(cc1OC)C(=O)C(CC1CCN(Cc3ccccc3)CC1)C2.Cl (stereo not drawn) [DONEPEZIL HYDROCHLORIDE] ; measured Kp at 1 h: 5.3
